# Enzyme Activity Endpoint Assay: scIgG per record follows
TEST_SYSTEM: pooled human IgG (human IgG1, 2, 3 and 4) (human); also: test concentration or dose not given here
ASSAY_COMMENT: cell-based or functional assay
API: value field is a number in ng/µL; no unit string.

Recorded result, PRT-380 (enzyme) MVTSVWTKGVTPPTNFTYGEDVLHAPYVANQGWYDITKTFNGKDDLLCGAATAGNMLHWWFDQNKEQIENYLKKHPEKQKINFNGEQMFDVKEAIDTKDSQLDSKLFEYFKEKAFPYLSTKHLGVFPDHVIDMFINGYRLSLTNHGPTPVKRGSKDPRGGIFDAVFTRGDQSKLLTNRHDFKEKTLKEISDLIKQELTEGKALGISHTYANARINHVINLWGADFDAEGNLEAIYVTDSDSNASIGMKKYFVGVNSNGKVAISAKEIEEDNIGAQVLGLFTLSTGQDIWNQTN , Enzyme Activity Endpoint Assay: scIgG: 702

More entries:
Recorded result, PRT-409 (enzyme) MVTSVWTKGVTPPADFTQGEDVFHAPYVANQGWYDITKTFNGKDDLLCGAATAGNMLHWWFDQNKEYIEAYLKKHPEKQKIMFGDQELLDVRKAINTKGSQKNSELFNYFRDKAFPNLSARRLGVMPDLVLDMFINGYYLNVTKTQTTDVNRTYQEKDKRGGIFDAVFTRGVQSKLLTSRHDFKEKGLKEISDLIKQELTEGKALGLSHTYANVRINHVINLWGADFDSDGNLKAIYVTDSDSNASIGMKKYFVGVNSAGKVAISAKEIKEDNIGAQVLGLFTLSTGQDIWNQTN , Enzyme Activity Endpoint Assay: scIgG: 0
